These data points were gathered from patent US20060276436A1.

protocol text: Pharmacokinetics of Formulation D11 given CIV for 14 days in monkeys
Format: in vivo, Cynomolgus monkeys
conditions used: cynomolgus monkey, plasma, iv, 5 mg/kg/day, 14-day CIV, 5 mg/kg/day, Mean (SD), read-out: Vss

# smiles, Vd [L/kg]
measured = [
    ("CC(C)=CCC/C(C)=C/CC/C(C)=C/CN1C(=O)c2cccc(O)c2Nc2c(O)cc(O)cc21", 7.1),
]

###

protocol text: Pharmacokinetics of Formulation D11 given CIV for 14 days in rats
Type: in vivo
conditions used: both sexes, Sprague-Dawley, rat, plasma, iv, 14-day CIV, 75 mg/kg/day
result type: AUC (µg·h/mL)

# smiles, result type, readout unit, val
rows = [
    ("CC(C)=CCC/C(C)=C/CC/C(C)=C/CN1C(=O)c2cccc(O)c2Nc2c(O)cc(O)cc21", "AUC", "µg·h/mL", 597),
]

###

protocol text: Pharmacokinetics of Formulation D11 given CIV for 14 days in rats
Format: in vivo
conditions used: both sexes, Sprague-Dawley, rat, plasma, iv, 14-day CIV, 75 mg/kg/day

# smiles, clearance
rows = [
    ("CC(C)=CCC/C(C)=C/CC/C(C)=C/CN1C(=O)c2cccc(O)c2Nc2c(O)cc(O)cc21", "30 mL/min/kg"),
]

###

protocol text: Population pharmacokinetic analysis (NONMEM), mouse
Type: in vivo
conditions used: CD1, plasma, 30 mg/kg; Mouse (IV), population PK; read-out: Vss

# smiles, Vd
records = [
    ("CC(C)=CCC/C(C)=C/CC/C(C)=C/CN1C(=O)c2cccc(O)c2Nc2c(O)cc(O)cc21", "0.401 L/kg"),
]

###

protocol text: Pharmacokinetics of Formulation D11 given CIV for 14 days in rats
Assay type: in vivo
conditions used: both sexes, Sprague-Dawley, rat, plasma, iv, 14-day CIV, 50 mg/kg/day
result type: AUC

# molecule, val
data = [
    ("CC(C)=CCC/C(C)=C/CC/C(C)=C/CN1C(=O)c2cccc(O)c2Nc2c(O)cc(O)cc21 [Compound 1]", "396 µg·h/mL"),
]

###

protocol text: Pharmacokinetics of Formulation D11 given CIV for 14 days in monkeys
Type: in vivo, Cynomolgus monkeys
conditions used: cynomolgus monkey, plasma, iv, 14-day CIV, 15 mg/kg/day, Mean (SD)

# molecule, clearance [L/h/kg]
data = [
    ("CC(C)=CCC/C(C)=C/CC/C(C)=C/CN1C(=O)c2cccc(O)c2Nc2c(O)cc(O)cc21 [Compound 1]", 0.56),
]

###

protocol text: Pharmacokinetics of Formulation D11 given CIV for 14 days in rats
Assay type: in vivo
conditions used: both sexes, Sprague-Dawley, rat, plasma, intravenous, 75 mg/kg/day, read-out: mean plasma concentration 2 hours after the end of infusion
result type: concentration at 2 h (ng/mL)

# smiles, val
data = [
    ("CC(C)=CCC/C(C)=C/CC/C(C)=C/CN1C(=O)c2cccc(O)c2Nc2c(O)cc(O)cc21", 75),
]

###

protocol text: Population pharmacokinetic analysis (NONMEM), mouse
Assay type: in vivo
conditions used: CD1, plasma, 30 mg/kg; Mouse (IV), WT 0.022 Kg
result type: clearance (mL/min)

# compound, result type, val
data = [
    ("CC(C)=CCC/C(C)=C/CC/C(C)=C/CN1C(=O)c2cccc(O)c2Nc2c(O)cc(O)cc21 [Compound 1]", "clearance", 0.533),
]

###

protocol text: Pharmacokinetics of Formulation D11 given CIV for 14 days in monkeys
Assay type: in vivo, Cynomolgus monkeys
conditions used: cynomolgus monkey, plasma, iv, 14-day CIV, 15 mg/kg/day, Mean (SD)

# smiles, AUC
rows = [
    ("CC(C)=CCC/C(C)=C/CC/C(C)=C/CN1C(=O)c2cccc(O)c2Nc2c(O)cc(O)cc21", "400 µg·h/mL"),
]

###

protocol text: Population pharmacokinetic analysis (NONMEM), monkey
Type: in vivo
conditions used: cynomolgus, monkey, plasma, iv, Monkey (CIV), population PK; read-out: t1/2, β (converted)
result type: half-life

# compound, val
data = [
    ("CC(C)=CCC/C(C)=C/CC/C(C)=C/CN1C(=O)c2cccc(O)c2Nc2c(O)cc(O)cc21 [Compound 1]", "483 min"),
]

###

protocol text: Population pharmacokinetic analysis (NONMEM), rat
Format: in vivo
conditions used: plasma; Rat (IV + CIV), WT 0.225 Kg; read-out: Vss

# smiles, Vd [L]
records = [
    ("CC(C)=CCC/C(C)=C/CC/C(C)=C/CN1C(=O)c2cccc(O)c2Nc2c(O)cc(O)cc21", 0.081),
]

###

protocol text: Pharmacokinetics of Formulation D11 given CIV for 14 days in rats
Format: in vivo
conditions used: both sexes, Sprague-Dawley, rat, plasma, intravenous, 25 mg/kg/day, read-out: mean plasma concentration 2 hours after the end of infusion
Description: Sprague-Dawley rats received an intravenous continuous infusion over 14 days of Compound 1 at 25 mg/kg/day, 50 mg/kg/day, or 75 mg/kg/day at a rate of 2 mL/kg/h for 14 consecutive days (Formulation D11). […]

# smiles, concentration at 2 h [µg/mL]
rows = [
    ("CC(C)=CCC/C(C)=C/CC/C(C)=C/CN1C(=O)c2cccc(O)c2Nc2c(O)cc(O)cc21", 0.028),
]

###

protocol text: Pharmacokinetics of Formulation D11 given CIV for 14 days in monkeys
Format: in vivo, Cynomolgus monkeys
conditions used: cynomolgus monkey, plasma, iv, 14-day CIV, 5 mg/kg/day, Mean (SD)

# compound, clearance / mL/min/kg
records = [
    ("CC(C)=CCC/C(C)=C/CC/C(C)=C/CN1C(=O)c2cccc(O)c2Nc2c(O)cc(O)cc21 [Compound 1]", 10.2),
]

###

protocol text: Population pharmacokinetic analysis (NONMEM), rat
Type: in vivo
conditions used: plasma; Rat (IV + CIV), WT 0.225 Kg

# smiles, readout unit, clearance
measured = [
    ("CC(C)=CCC/C(C)=C/CC/C(C)=C/CN1C(=O)c2cccc(O)c2Nc2c(O)cc(O)cc21", "mL/min", 4.08),
]
